This collection of values is drawn from paper PMC7057269.

Molecular target: T1, biotinylated NPNA3 peptide (Biotin-linker-NPNANPNANPNA-NH2) (Plasmodium falciparum, synthetic CSP …, reading uncertain)
T1 construct: not shown: biotin, N-terminal, kept
T1 chain: {Biotin-linker}-NPNANPNANPNA-NH2
Assay: BLI
Conditions: both partners purified
* marks the point of attachment. Biotin = O=C1N[C@H]2[C@H](CS[C@H]2CCCCC(=O)*)N1; linker = not defined here

{"columns": ["binder", "other [%]"],
 "data": [
  ["Fab397 HR96A (Fab, V domains shown) VH: EVQLVKSGGGLVKPGGSLRLSCAVSGFTFTDAWMSWVRQAPGKGPEWVGRIKSNPDGGTTDYAAPVRGRFTISRDDSKNTLYLQMNNLKTEDTAVYYCITDADFYRSGGSWGQGTLVTV VL: DIVMTQSPLSLPVTPGEPASISCRSRQSLLYSNGDNYLDWYLQKPGQSPQLLIYLGSNRAPGVPDRFSGSGSGTDFTLKISRVEAEDVGVYYCMQTLQTPHTFGQGTKLEIK", 77],
  ["Fab317 LW32A (Fab, V domains shown) VH: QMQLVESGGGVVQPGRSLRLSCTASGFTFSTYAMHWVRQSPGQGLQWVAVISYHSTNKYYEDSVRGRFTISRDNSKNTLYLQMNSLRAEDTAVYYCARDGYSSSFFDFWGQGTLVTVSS VL: DIQMTQSPSTLSASVGDRVAITCRASQSISRALAWYQQQPGKAPKLLMSGASVLESGVPSRFSGSGSGTEFTLTISSLQPDDFATYYCQHYNSYFVTFGQGTKVEIK", 20],
  ["Fab317 wild type (Fab, V domains shown) VH: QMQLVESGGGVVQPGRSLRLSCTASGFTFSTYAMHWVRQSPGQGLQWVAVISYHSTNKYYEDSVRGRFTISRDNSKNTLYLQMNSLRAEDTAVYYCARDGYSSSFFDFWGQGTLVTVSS VL: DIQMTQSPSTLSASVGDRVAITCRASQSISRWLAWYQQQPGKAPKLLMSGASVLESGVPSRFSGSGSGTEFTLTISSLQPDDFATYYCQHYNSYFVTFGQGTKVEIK", 100],
  ["Fab311 HW52A (Fab, V domains shown) VH: QVQLVESGGGVVPPGRSLRLSCATSGFTFSNYGMHWVRQAPGKGLEWVAIIAYDGSRNFYAASVEGRFTISRDNSKNTLYLQMNSLRVEDTAVYYCARAAYYDTSGYGDYWGQGTLVTVSS VL: QSVLTQPPSVSGAPGQTVTISCTGGSSNIGAGYDVHWYQQLPGTAPKLLIYGNINRPSGVPDRFSGSKSGTSASLAITGLQAEDEADYYCQSYDRRLSGSWVFGGGTKLTVL", 26],
  ["Fab397 LD30A (Fab, V domains shown) VH: EVQLVKSGGGLVKPGGSLRLSCAVSGFTFTDAWMSWVRQAPGKGPEWVGRIKSNPDGGTTDYAAPVRGRFTISRDDSKNTLYLQMNNLKTEDTAVYYCITDRDFYRSGGSWGQGTLVTV VL: DIVMTQSPLSLPVTPGEPASISCRSRQSLLYSNGANYLDWYLQKPGQSPQLLIYLGSNRAPGVPDRFSGSGSGTDFTLKISRVEAEDVGVYYCMQTLQTPHTFGQGTKLEIK", 66]
]}
